Values from the Human Domainome abundance scans (Beltran et al. 2025)

Consider the following variants; for each one, report its abundance fitness.
B1: Segment polarity protein dishevelled homolog DVL-3, residues 2 to 81; numbered along this chain, Q92997 (parent)
chain: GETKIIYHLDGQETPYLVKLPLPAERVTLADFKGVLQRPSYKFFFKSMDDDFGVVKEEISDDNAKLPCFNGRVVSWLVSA

- Variants of: B1
- PROTOCOL_DETAILS: abundance fitness (aPCA) (normalised: wild type 0, dead -1); higher = more abundant; growth selection in yeast, the domain comes from the species named
- APPLIED_CONDITIONS: Homo sapiens
One number for each entry.

INSERT INTO results (residue_change, test_value) VALUES
  ('R72T', 0.318),
  ('S75R', -0.606),
  ('V74D', -0.593);

Parameters: items (list). Returns: abundance fitness for each item.
1. F43K
2. M48I
3. N70C
4. S79W
5. V74R
6. V73A
7. Y41C
8. L20T

Found:
[-0.644, -0.13, -0.467, -0.71, -0.446, -0.511, -0.227, -0.836]

Parameters: items (list). Returns: abundance fitness for each item.
1. V73S
2. G71V
3. W76V

Found:
1. -0.618
2. -0.888
3. -0.565

Parameters: items (list). Returns: abundance fitness for each item.
1. D62R
2. P23E
3. C68M

Found:
-0.709
-0.383
-0.22
